Tested on: Human immunodeficiency virus 1
assay_remarks: Antiviral activity against HIV-1 infected in human MT4 cells assessed as reduction in virus-indued cytopathogenicity incubated for 5 days in presence of AZT by MTT assay
Assay type: functional, organism-based
settings: Human immunodeficiency virus 1, MT4, 120 h
observable: pEC50
Friendly reminder that pEC50 comes from taking -log10 of the concentration in mol/L.

## Task Would you kindly share the measured pEC50 for Nc1ccn([C@H]2CC[C@@H](CO)O2)c(=O)n1 [ZALCITABINE] ?
## Result 7.08

* * *

assay_remarks: Selectivity index, ratio of CC50 for human MT4 cells to EC50 for antiviral activity against HIV-1 infected in human MT4 cells in presence of ddA
Assay type: toxicity, cell-based
settings: read-out: Ratio CC50/EC50
observable: selectivity ratio

## Task Would you kindly share the measured selectivity ratio for `Nc1ccn([C@H]2CC[C@@H](CO)O2)c(=O)n1` ?
## Result > 83
